These data points were gathered from ChEMBL document CHEMBL1961873.

assayed-target: Sphingosine kinase 1 (Homo sapiens);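 further: mean SPHK1 inhibition value reported from the GSK PKIS kinase panel screen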
particulars: at 1 µM
Recorded measurements of inhibition, one per entry

>  <substance-smiles>
CC(C)=Cc1cccc2c1/C(=N/Nc1ccc(S(N)(=O)=O)cc1)C(=O)N2

>  <inhibition (%)>
3.96

$$$$
>  <substance-smiles>
CN(C)c1cc2c(Nc3ccc4nc(Cc5ccccc5)[nH]c4c3)ncnc2cn1

>  <inhibition (%)>
-4.39

$$$$
>  <substance-smiles>
CCCN1CCC=C(c2ccc(Nc3nc(Nc4ccccc4C(N)=O)c4cc[nH]c4n3)c(C)c2)C1

>  <inhibition (%)>
1.28

$$$$

----------
assayed-target: Vascular endothelial growth factor receptor 3 (Homo sapiens)
particulars: at 0.1 µM
Description: GSK_PKIS: FLT4 mean inhibition at 0.1 uM [Nanosyn]

>  <substance-smiles>
Nc1ncnc2occ(-c3ccc(NC(=O)Nc4cc(C(F)(F)F)cc(C(F)(F)F)c4)cc3)c12

>  <inhibition / %>
9.31

$$$$
>  <substance-smiles>
Fc1cccc(COc2ccc(Nc3ncnc4sc(-c5cccs5)cc34)cc2Cl)c1

>  <inhibition / %>
3.77

$$$$
>  <substance-smiles>
COc1cc2ncn(-c3cc(O[C@@H](C)c4ccccc4Cl)c(C(N)=O)s3)c2cc1OC

>  <inhibition / %>
19.7

$$$$
>  <substance-smiles>
CNC(=O)c1cncc(/C=C/c2c(Cl)cccc2Cl)c1

>  <inhibition / %>
-7.73

$$$$
>  <substance-smiles>
Cc1ccc(NC(=O)c2ccnc(N3CCCC3)c2)cc1-c1ccc(C(=O)NCC2CC2)cc1

>  <inhibition / %>
-7.96

$$$$

----------
assayed-target: Phosphatidylinositol 4-kinase beta (Homo sapiens)
particulars: at 1 µM

>  <compound>
Nc1ncnc2occ(-c3ccc(NC(=O)Nc4cccc(C(F)(F)F)c4)cc3)c12

>  <assayed-target>
Phosphatidylinositol 4-kinase beta (Homo sapiens)

>  <inhibition [%]>
1.22

$$$$
>  <compound>
N#Cc1c(NC(=O)c2cccc3ccccc23)sc2c1CCCC2

>  <assayed-target>
Phosphatidylinositol 4-kinase beta (Homo sapiens)

>  <inhibition [%]>
-0.74

$$$$
>  <compound>
CCCN1CCC(Oc2cc(Nc3nc(Nc4cccc(F)c4C(N)=O)c4cc[nH]c4n3)c(OC)cc2Cl)CC1

>  <assayed-target>
Phosphatidylinositol 4-kinase beta (Homo sapiens)

>  <inhibition [%]>
-2.71

$$$$
>  <compound>
Cc1nnc(-c2ccc(C)c(-c3ccc(C(=O)Nc4cccc(C#N)c4)cc3)c2)o1

>  <assayed-target>
Phosphatidylinositol 4-kinase beta (Homo sapiens)

>  <inhibition [%]>
0.49

$$$$
>  <compound>
Fc1cccc(COc2ccc(Nc3ncnc4sc(-c5cccs5)cc34)cc2Cl)c1

>  <assayed-target>
Phosphatidylinositol 4-kinase beta (Homo sapiens)

>  <inhibition [%]>
-0.43

$$$$
>  <compound>
COc1cc(C=NNc2ncnc3c2cnn3-c2ccccc2)ccc1O

>  <assayed-target>
Phosphatidylinositol 4-kinase beta (Homo sapiens)

>  <inhibition [%]>
-0.12

$$$$
>  <compound>
CCc1cccc(NC(=O)Nc2ccc(Oc3ccc4nc(NC(=O)OC)[nH]c4c3)cc2)c1

>  <assayed-target>
Phosphatidylinositol 4-kinase beta (Homo sapiens)

>  <inhibition [%]>
-4.52

$$$$
>  <compound>
CC1=C(C(=O)Nc2ccc3[nH]ncc3c2)C(c2ccc(F)cc2)NC(=O)N1 (centres undefined)

>  <assayed-target>
Phosphatidylinositol 4-kinase beta (Homo sapiens)

>  <inhibition [%]>
1.28

$$$$
>  <compound>
O=C(Nc1n[nH]c2nc(-c3ccco3)c(Br)cc12)C1CC1

>  <assayed-target>
Phosphatidylinositol 4-kinase beta (Homo sapiens)

>  <inhibition [%]>
5.14

$$$$
>  <compound>
COC(=O)Nc1nc2cc(Oc3cccc(NC(=O)Nc4cc(C(F)(F)F)ccc4F)c3)ccc2[nH]1

>  <assayed-target>
Phosphatidylinositol 4-kinase beta (Homo sapiens)

>  <inhibition [%]>
0.44

$$$$
>  <compound>
Fc1cccc(COc2ccc(Nc3ncnc4cc(-c5ccc[nH]5)sc34)cc2Cl)c1

>  <assayed-target>
Phosphatidylinositol 4-kinase beta (Homo sapiens)

>  <inhibition [%]>
2.94

$$$$
>  <compound>
COC(=O)Nc1nc2cc(Oc3ccc(NC(=O)Nc4cccc(C(=O)O)c4)cc3)ccc2[nH]1

>  <assayed-target>
Phosphatidylinositol 4-kinase beta (Homo sapiens)

>  <inhibition [%]>
-1.03

$$$$
>  <compound>
COc1ccc(-c2ccncc2)cc1C(N)=O

>  <assayed-target>
Phosphatidylinositol 4-kinase beta (Homo sapiens)

>  <inhibition [%]>
4.03

$$$$
>  <compound>
CCCN1CCC=C(c2ccc(Nc3nc(Nc4ccccc4C(N)=O)c4cc[nH]c4n3)c(C)c2)C1

>  <assayed-target>
Phosphatidylinositol 4-kinase beta (Homo sapiens)

>  <inhibition [%]>
-0.01

$$$$
>  <compound>
COc1cc2ncn(-c3cc(O[C@@H](C)c4ccccc4Cl)c(C(N)=O)s3)c2cc1OC

>  <assayed-target>
Phosphatidylinositol 4-kinase beta (Homo sapiens)

>  <inhibition [%]>
-6.07

$$$$
>  <compound>
CS(=O)(=O)CCNCc1nc(-c2ccc3ncnc(Nc4ccc(F)c(Cl)c4)c3c2)cs1

>  <assayed-target>
Phosphatidylinositol 4-kinase beta (Homo sapiens)

>  <inhibition [%]>
5.06

$$$$
>  <compound>
CS(=O)(=O)CCNCc1ccc(-c2ccc3ncnc(Nc4ccc(OCc5ccccc5)c(Cl)c4)c3c2)o1

>  <assayed-target>
Phosphatidylinositol 4-kinase beta (Homo sapiens)

>  <inhibition [%]>
3.61

$$$$
>  <compound>
CC1=C(C(=O)Nc2ccc3[nH]ncc3c2)C(c2ccc(Cl)c(Cl)c2)CC(=O)N1 (centres undefined)

>  <assayed-target>
Phosphatidylinositol 4-kinase beta (Homo sapiens)

>  <inhibition [%]>
-1.19

$$$$
>  <compound>
COc1ccc(-c2nn3ncccc3c2-c2ccnc(Nc3ccc(Cl)c(C(F)(F)F)c3)n2)cc1

>  <assayed-target>
Phosphatidylinositol 4-kinase beta (Homo sapiens)

>  <inhibition [%]>
0.08

$$$$
>  <compound>
Cn1cc(C=C2C(=O)Nc3cccnc32)c2ccccc21

>  <assayed-target>
Phosphatidylinositol 4-kinase beta (Homo sapiens)

>  <inhibition [%]>
4.05

$$$$
>  <compound>
Cc1cccc(-c2n[nH]cc2-c2ccc3ncccc3n2)n1

>  <assayed-target>
Phosphatidylinositol 4-kinase beta (Homo sapiens)

>  <inhibition [%]>
4.48

$$$$
>  <compound>
CS(=O)(=O)CCN(CC#N)Cc1ccc(-c2ccc3ncnc(Nc4ccc(OCc5cccc(F)c5)c(Cl)c4)c3c2)o1

>  <assayed-target>
Phosphatidylinositol 4-kinase beta (Homo sapiens)

>  <inhibition [%]>
3.34

$$$$
>  <compound>
O=C1Nc2ccc(C(=O)c3ccco3)cc2C1=Cc1cc(Cl)c(O)c(Cl)c1

>  <assayed-target>
Phosphatidylinositol 4-kinase beta (Homo sapiens)

>  <inhibition [%]>
80.7

$$$$
>  <compound>
CCn1c(-c2nonc2N)nc2c(C#CC(C)(C)O)nc(CN3CCCC3)cc21

>  <assayed-target>
Phosphatidylinositol 4-kinase beta (Homo sapiens)

>  <inhibition [%]>
-2.03

$$$$
>  <compound>
COc1ccc2cc(-c3c(-c4ccncc4)nc(-c4ccc([S+](C)[O-])cc4)n3C)ccc2c1 (centres undefined)

>  <assayed-target>
Phosphatidylinositol 4-kinase beta (Homo sapiens)

>  <inhibition [%]>
-2.26

$$$$
>  <compound>
CS(=O)(=O)Nc1ccc(N/C=C2\C(=O)Nc3ccccc32)cc1

>  <assayed-target>
Phosphatidylinositol 4-kinase beta (Homo sapiens)

>  <inhibition [%]>
-0.72

$$$$
>  <compound>
NS(=O)(=O)c1cccc(-c2ccc3c(NC(=O)C4CC4)n[nH]c3c2)c1

>  <assayed-target>
Phosphatidylinositol 4-kinase beta (Homo sapiens)

>  <inhibition [%]>
-3.98

$$$$
>  <compound>
CCn1c(-c2nonc2N)nc2c(N3CCCC3)nccc21

>  <assayed-target>
Phosphatidylinositol 4-kinase beta (Homo sapiens)

>  <inhibition [%]>
-2.5

$$$$
>  <compound>
O=C1NC(=O)C(N2CCc3ccccc32)=C1c1ccc(Cl)cc1

>  <assayed-target>
Phosphatidylinositol 4-kinase beta (Homo sapiens)

>  <inhibition [%]>
-1.34

$$$$
>  <compound>
CN(C)c1cc2c(Nc3ccc4nc(Cc5ccccc5)[nH]c4c3)ncnc2cn1

>  <assayed-target>
Phosphatidylinositol 4-kinase beta (Homo sapiens)

>  <inhibition [%]>
5.38

$$$$
>  <compound>
Cc1ccc(C(=O)NC2CCCCC2)cc1-c1ccc(C(=O)NCC2CC2)cc1

>  <assayed-target>
Phosphatidylinositol 4-kinase beta (Homo sapiens)

>  <inhibition [%]>
-5.9

$$$$
>  <compound>
O=C1NC(=O)C(c2ccccc2Cl)=C1Nc1cccc(O)c1

>  <assayed-target>
Phosphatidylinositol 4-kinase beta (Homo sapiens)

>  <inhibition [%]>
-2.78

$$$$
>  <compound>
c1cnn2ncc(-c3ccnc(Nc4ccc5c(c4)OCCO5)n3)c2c1

>  <assayed-target>
Phosphatidylinositol 4-kinase beta (Homo sapiens)

>  <inhibition [%]>
9.37

$$$$
>  <compound>
COc1cc2ncn(-c3cc(OCc4ccccc4C(F)(F)F)c(C(N)=O)s3)c2cc1OC

>  <assayed-target>
Phosphatidylinositol 4-kinase beta (Homo sapiens)

>  <inhibition [%]>
1.79

$$$$
>  <compound>
COc1cc2ncn(-c3cc(OCc4ccccc4Cl)c(C(N)=O)s3)c2cc1OC

>  <assayed-target>
Phosphatidylinositol 4-kinase beta (Homo sapiens)

>  <inhibition [%]>
1.54

$$$$
>  <compound>
CC(=O)Nc1cccc(C#Cc2cncnc2Nc2ccc(OCc3cccc(F)c3)c(Cl)c2)n1

>  <assayed-target>
Phosphatidylinositol 4-kinase beta (Homo sapiens)

>  <inhibition [%]>
0.88

$$$$
>  <compound>
CS(=O)(=O)CCNCc1ccc(-c2ccc3ncnc(Nc4ccc(OCc5cccc(F)c5)c(C(F)(F)F)c4)c3c2)o1

>  <assayed-target>
Phosphatidylinositol 4-kinase beta (Homo sapiens)

>  <inhibition [%]>
-2.15

$$$$
>  <compound>
[O-][S+]1CCN(Cc2ccc(-c3ccc4ncnc(Nc5ccc(OCc6ccccc6)c(F)c5)c4c3)o2)CC1

>  <assayed-target>
Phosphatidylinositol 4-kinase beta (Homo sapiens)

>  <inhibition [%]>
-1.35

$$$$
>  <compound>
CCn1c(-c2nonc2N)nc2cnc(Oc3cccc(NC(=O)c4ccc(OCCN5CCOCC5)cc4)c3)cc21

>  <assayed-target>
Phosphatidylinositol 4-kinase beta (Homo sapiens);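 further: values are mean percent inhibition of PI4K-beta activity, averaged over replicate measurements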

>  <inhibition [%]>
-2.56

$$$$
